Just for reference, PubChem BioAssay (NCI) is where these values come from.

Entries and their measured TGI follow.
# Tested on: RPMI-8226 leukemia
# test.name: NCI tumour cell line growth inhibition, 48 h
// units = µM; emit number, no label

Recorded TGI, per entry:
molecule: NC1=NC(c2ccccc2)CC(c2cc(Cl)ccc2O)=N1 (configuration not stated)
measurement.label: TGI
numeric.readout: 41
--
molecule: CCCn1c(=S)sc2c1nc(C)n1c(Nc3ccccc3)nnc21
measurement.label: TGI
numeric.readout: 39.3
--
molecule: Nc1nc(I)nc2c1ncn2C1OC(COS(N)(=O)=O)C(O)C1O (configuration not stated)
measurement.label: TGI
numeric.readout: 0.172

// next entry
Report TGI for Cc1ccc(C(=O)N(CCCN)C(c2oc3cc(Cl)ccc3c(=O)c2Cc2ccccc2)C(C)C)cc1 (configuration not stated) please.
1.46

====

# Tested on: HOP-92 NSCLC
# test.name: NCI tumour cell line growth inhibition, 48 h
Entries and their measured TGI follow.
// units = µM; emit number, no label

Recorded TGI, per entry:
compound: N#CSC1CCCCNC1=O (configuration not stated)
unit: µM
TGI: 20.9

compound: CC/C=C\C[C@@H](O)C/C=C1/C(=O)C=C[C@H]1C/C=C\CCCC(=O)OC
unit: µM
TGI: 15.2

compound: COC(=O)/C=C(/C=C1/C(C#N)=C(N)N(c2ccc(Cl)cc2)C1(C)/C(=C/C(=O)OC)C(=O)OC)C(=O)OC (configuration not stated)
unit: µM
TGI: 88.6

Report TGI for Nc1nccc(-c2c(-c3ccc(F)cc3)ncn2C2CCC(O)CC2)n1 (configuration not stated) please.
17.3

Report TGI for CCOC(=O)c1oc2cc3c(c4c2c1-c1ccccc1N4C)C=CC(C)(C)O3 please.
17.7

Report TGI for O=c1[nH]nc(-c2ccccc2)n1/N=C/c1ccc([N+](=O)[O-])cc1 please.
32

Report TGI for C[N+]1=C(/C=C/c2ccc(O)c3ncccc23)C(C)(C)c2ccccc21 please.
7.67

====

# Test system: ACHN renal
# test.name: NCI tumour cell line growth inhibition, 48 h
measurement.label: TGI

molecule: Cc1cccc(C(C)C)c1NC(=O)/C(Cc1c([N+](=O)[O-])cccc1[N+](=O)[O-])=N/NC(=O)CC#N
TGI: > 100 µM
//
molecule: COC(=O)Nc1nc2ccc(Oc3ccc(NC(=O)Nc4cc(C(F)(F)F)ccc4F)cc3)cc2s1
TGI: > 25 µM

Report TGI for C[C@@H]1OC(=O)N2CCCC(=C3SCCCS3)C12 (stereo partly drawn) please.
> 100 µM

====

Entries and their measured TGI follow.
# Test system: NCI/ADR-RES ovarian
# test.name: NCI tumour cell line growth inhibition, 48 h

Recorded TGI, per entry:
molecule: Cc1cc(-c2cnn3c(NCC4CC(C)(O)C4)cc(Oc4cccnc4)nc23)ccc1C(=O)NC1CC1 (stereo unspecified)
result: > 100 µM
//
molecule: O=C1N[C@H]2c3c(Cl)sc(Cl)c3[C@@H](O)[C@H]2O1
result: > 100 µM
//
molecule: O=C1CN(C(=O)C2CCCN2C(=O)C2CCCN2)C(=O)CN1 (stereo unspecified)
result: > 100 µM
//
molecule: CCOC(=O)C1(Cc2ccccc2)C=CN(C(=O)c2ccccc2)C=C1
result: > 100 µM
//
molecule: COc1ccccc1NC(=S)Nc1cc(C)cc(C)n1
result: > 100 µM

Report TGI for O=C1CCC(N2C(=O)c3ccccc3C2=O)C(=O)N1CO (stereo unspecified) please.
> 100 µM
